# assay method text: Solubility of the compound in HEPES buffer at pH 7.4 after 24 hrs
# Type: physicochemical
Decide by solubility at 24 h: equal to or exceeding 3 µM means criterion met, less means criterion not met.

Example entries and their recorded answers appear below.
1) CCN(CC)c1ccc2c(-c3ccc(S(=O)(=O)NC4CCCN(C(=O)c5ccc(NC(=O)c6ccccc6-c6ccccc6)cc5)c5ccccc54)cc3S(=O)(=O)[O-])c3ccc(=[N+](CC)CC)cc-3oc2c1 (stereo unspecified)    criterion not met
2) CCN(CC)c1ccc2c(-c3ccc(S(=O)(=O)NCCOCCOCCOCCn4cc(CNC(=O)CCC(=O)NC5CCCN(C(=O)c6ccc(NC(=O)c7ccccc7-c7ccccc7)cc6)c6ccccc65)nn4)cc3S(=O)(=O)[O-])c3ccc(=[N+](CC)CC)cc-3oc2c1 (stereo unspecified)    criterion not met
3) CCN(CC)c1ccc2c(-c3ccc(S(=O)(=O)N4CCN(CCC(=O)NC5CCCN(C(=O)c6ccc(NC(=O)c7ccccc7-c7ccccc7)cc6)c6ccccc65)CC4)cc3S(=O)(=O)[O-])c3ccc(=[N+](CC)CC)cc-3oc2c1 (stereo unspecified)    criterion met
4) CCN(CC)c1ccc2c(-c3ccc(S(=O)(=O)NCCOCCOCCOCCC(=O)NC4CCCN(C(=O)c5ccc(NC(=O)c6ccccc6-c6ccccc6)cc5)c5ccccc54)cc3S(=O)(=O)[O-])c3ccc(=[N+](CC)CC)cc-3oc2c1 (stereo unspecified)    criterion met
5) CCN(CC)c1ccc2c(-c3ccc(S(=O)(=O)NCCOCCOCCOCCn4cc(CNC(=O)CCC(=O)NC5CCCN(C(=O)c6ccc(NC(=O)c7ccccc7C)cc6)c6ccccc65)nn4)cc3S(=O)(=O)[O-])c3ccc(=[N+](CC)CC)cc-3oc2c1 (stereo unspecified)    criterion met

Please find the next compound below.
Record CCN(CC)c1ccc2c(-c3ccc(S(=O)(=O)NCCCCC(=O)NC4CCCN(C(=O)c5ccc(NC(=O)c6ccccc6-c6ccccc6)cc5)c5ccccc54)cc3S(=O)(=O)[O-])c3ccc(=[N+](CC)CC)cc-3oc2c1 (stereo unspecified) ; criterion: solubility at 24 h no lower than 3 µM. Met? criterion met
